Just for reference, patent US12410208B2 is where these values come from.

Parameter pIC50: see the listing below.
Target: human Gal-1 (hGal-1) (Homo sapiens)
Sequence (P09382 whole entry): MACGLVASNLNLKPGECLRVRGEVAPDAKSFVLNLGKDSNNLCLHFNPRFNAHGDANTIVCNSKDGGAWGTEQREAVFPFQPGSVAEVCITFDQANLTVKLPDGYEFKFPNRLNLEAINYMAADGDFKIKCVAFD
Keep it numeric: pIC50 is minus log10 of the concentration in mol/L.

compound="CN(C(=O)[C@H](S[C@@H]1O[C@H](CO)[C@H](O)[C@H](n2cc(-c3cc(F)c(F)c(F)c3)nn2)[C@H]1O)C1(O)CCOCC1)c1cccnc1 [Example 2.41.234R]" number=4.96
compound="CN(C(=O)C(S[C@@H]1O[C@H](CO)[C@H](O)[C@H](n2cc(-c3cc(F)c(F)c(F)c3)nn2)[C@H]1O)C1(O)CCCC1)C1CCC1 (some centres unmarked)" number=7.70

Entry O=C([C@@H](S[C@@H]1O[C@H](CO)[C@H](O)[C@H](n2cc(-c3cc(F)c(F)c(F)c3)nn2)[C@H]1O)C1(O)CCC1)N1CCC1 [Example 2.34.206S.] ; assay system human Gal-1 (hGal-1) (Homo sapiens); pIC50 recorded at 6.21
